# Procedure text: Human HepG2 cell viability assay in 384 well format
# Assay type: toxicity, cell-based
# Design: dose 125 nL, time 70.5 hour; concentration not given beside the values
# Settings: HepG2 cells, read-out: Inhibition
Kindly state cytotoxicity at 70.5 h for each of the entries shown.
One number for each entry, in %.

Compound | Value
CSCc1noc(CNC(=O)C2CCN(C(=O)C3CCCC3)CC2)n1 | -10.6
CCOCc1nc2c(c(N3CC=CC3)n1)CCN(Cc1ccco1)CC2 | -3.14
CNC(=O)NC(C)c1nc(-c2ccccc2)c[nH]1 (stereo unspecified) | -3.67
CN1CC[C@]2(CN(Cc3nccs3)C[C@H]2c2ccccc2)C1=O | 4.14
CN(C)c1nc2c(c(N3CCc4c(c(CO)nn4C)C3)n1)CCNC2 | 46.5

# batch size: 5; output cytotoxicity at 70.5 h per entry
1. Cn1cc(C[C@H]2[C@@H](OCC3CC3)CCN2C(=O)c2ccc[nH]2)cn1
2. Cc1cnn(CCNCc2csc(-c3ccc(F)cc3)n2)c1
3. Cc1nc(O)cc(CCNC(=O)CC[C@@H]2CCCN3CCCC[C@H]23)n1
4. OC1(CN2CCCC2)CCCN(c2ncnc3[nH]cnc23)C1 (stereo unspecified)
5. COc1ccc(Cc2ncc3c(n2)CN(C(=O)C(C)(C)OC)C3)cc1

21.2
3.66
-9.84
-2.89
-6.62

Look up cytotoxicity at 70.5 h for this compound: Cc1cccc(-c2nc3cc(S(=O)(=O)N4CCCC4)ccc3n2C)n1 -10.3

###

Kindly state cytotoxicity at 70.5 h for each of the entries shown.
# Procedure text: Human HepG2 cell viability assay in 384 well format
# Type: toxicity, cell-based
# Parameters: dose 125 nL, time 70.5 hour; concentration not given beside the values
# Settings: HepG2 cells, read-out: Inhibition
Answers are plain numbers, in %.

# batch size: 5; output cytotoxicity at 70.5 h per entry
1. Cc1ncc(CN2CCCC(O)(c3ccc(F)cc3)CC2)n1C (centres undefined)
2. O=C1COc2c(cccc2C(=O)N2CCCC(n3cccn3)C2)N1 (centres undefined)
3. CCn1ccnc1CN1CCOC(Cn2cccn2)C1 (centres undefined)
4. Cc1nc(C2CCCN(S(C)(=O)=O)C2)sc1Br (centres undefined)
5. CCc1nnc2n1CCN(Cc1cccc3c1OCCO3)C2

1. -5.42
2. 23.6
3. 22.6
4. -0.507
5. 21.6

# batch size: 8; output cytotoxicity at 70.5 h per entry
1. O=S(=O)(c1ccc(F)cc1)N1CCCCC1c1cc[nH]n1 (centres undefined)
2. Cc1nc(C)c(C(=O)N2CCCC2c2nnc3n2CCCCC3)s1 (centres undefined)
3. CC(C)Cc1noc(CN(C)C(=O)CCNC(=O)c2ccccc2F)n1
4. CCc1nnc2n1CCN(C(=O)c1nc(-c3ccco3)sc1C)C2
5. Cc1cccc(CN2CCC3(CC2)CC(c2cccnc2)C(=O)N3C)n1 (centres undefined)
6. CC(=O)NCc1ccc(C(=O)Nc2ccc3c(c2)C(=O)NC3)cc1
7. Cc1cc(C)nc(N2CCC(C(=O)Nc3n[nH]c(CC(C)C)n3)CC2)n1
8. COC(=O)CCN1CCCC1c1cccc2c1OCCO2 (centres undefined)

[-6.41, -8.07, -8.23, -6, 15.6, -2.55, -12, -6.05]

# batch size: 7; output cytotoxicity at 70.5 h per entry
1. CCc1nnc2n1CCN(Cc1csc(-c3ccccc3)n1)C2
2. O=S(=O)(NCc1ccc(S(=O)(=O)N2CCCC2)s1)c1ccc(Cl)cc1
3. CC(C)CN1CCc2[nH]cnc2C12CCN(C(=O)c1cc[nH]n1)CC2
4. Cc1nc(C(C)C)sc1C(=O)NCCSc1ccccn1
5. CCOc1ccc(-c2cc(CCN)ccc2OC)cc1
6. O=C1CCC(C(=O)N2CCOC(Cc3ccc(F)cc3)C2)=NN1 (centres undefined)
7. Cc1cccc(CS(=O)(=O)Cc2ccn(C)c(=O)c2)c1

[-12.9, -12.5, -5.86, -11.3, -1.62, -11.8, -12.8]
